# assay.system: T1, Fc Receptor-like 5 (FcRL5), full length, overexpressed on 3T3 or Raji cells (human, UniProt Q96RD9 16-977)
# T1 construct: also called 3T3-FcRL5
# T1 sequence: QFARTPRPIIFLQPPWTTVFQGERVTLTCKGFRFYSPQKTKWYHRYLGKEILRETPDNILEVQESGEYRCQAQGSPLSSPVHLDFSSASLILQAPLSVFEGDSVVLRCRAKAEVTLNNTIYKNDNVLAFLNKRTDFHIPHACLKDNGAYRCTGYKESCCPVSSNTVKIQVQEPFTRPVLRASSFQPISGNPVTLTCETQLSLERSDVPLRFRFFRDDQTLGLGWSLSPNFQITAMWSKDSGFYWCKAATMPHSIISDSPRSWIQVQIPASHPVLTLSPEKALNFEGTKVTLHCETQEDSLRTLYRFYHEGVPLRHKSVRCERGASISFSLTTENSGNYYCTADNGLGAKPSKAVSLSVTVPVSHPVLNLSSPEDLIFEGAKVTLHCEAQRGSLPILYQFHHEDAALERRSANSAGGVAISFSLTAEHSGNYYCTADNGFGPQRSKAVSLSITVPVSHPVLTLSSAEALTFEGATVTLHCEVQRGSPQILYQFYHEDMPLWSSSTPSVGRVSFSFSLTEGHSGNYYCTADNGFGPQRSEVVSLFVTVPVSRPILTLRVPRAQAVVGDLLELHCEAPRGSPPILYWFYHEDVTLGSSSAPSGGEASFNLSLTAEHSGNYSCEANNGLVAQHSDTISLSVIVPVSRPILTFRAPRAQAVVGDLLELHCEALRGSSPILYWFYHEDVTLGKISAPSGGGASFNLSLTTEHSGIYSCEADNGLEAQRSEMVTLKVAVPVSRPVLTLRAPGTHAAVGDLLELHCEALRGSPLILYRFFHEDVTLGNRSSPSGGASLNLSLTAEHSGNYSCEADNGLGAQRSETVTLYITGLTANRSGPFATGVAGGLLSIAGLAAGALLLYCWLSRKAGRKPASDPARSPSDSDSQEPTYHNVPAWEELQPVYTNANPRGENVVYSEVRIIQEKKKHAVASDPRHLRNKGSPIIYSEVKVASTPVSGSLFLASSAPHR
# experiment.notes: phage clone screening on cells
measured.parameter: binding result

ET200-027 (scFv, screened as phage clone; entry is VL-linker-VH-His tag-HA tag) scFv: QSVLTQPPSVSGAPGQGVTIPCTGSSSNIGAGYDVHWYQQLPGTAPKLLIYGNNNRPSGVPDRFSGSRSGSSASLAITGLQAEDEADYYCQSYDSSLSDVVFGGGTKVTVLGSRGGGGSGGGGSGGGGSLEMAEVQLVQSGAEVKKPGATVKISCKVSGYTFTDYYMHWVQQAPGKGLEWMGLVDPEDGETIYAEKFQGRVTITADTSTDTAYMELSSLRSEDTAVYYCARYWSYSFDYLYMPEGNDWWGQGTLVTVSSTSGQAGQHHHHHHGAYPYDVPDYAS
binds
ET200-008 (scFv, screened as phage clone; entry is VL-linker-VH-His tag-HA tag) scFv: QSALTQPASVSGSPGQSITISCTGTSSDVGGYNYVSWYQQHPGKAPKLMIYDVSNRPSGVSNRFSGSKSGNTASLTISGLQAEDEADYYCSSYTSSSTSKVFGGGTKLTVLGSRGGGGSGGGGSGGGGSLEMAEVQLVESGGGVVRPGGSLRLSCAASGFTFGDYGMSWVRQAPGKGLEWVSGINWNGGSTGYADSVKGRFTISRDNAKNSLYLQMNSLRAEDTAVYYCARSKYNFHVYYDYWGQGTLVTVSSTSGQAGQHHHHHHGAYPYDVPDYAS
binds
